Data provenance is ChEMBL document CHEMBL2177092.

test system: CCRF-CEM; test: Cytostatic activity against thymidine-kinase deficient human CEM cells after 72 hrs by cell counting; assay type: functional, cell-based
measuredEndpoint: pIC50
In textbook form, pIC50 equals minus log to base ten of the concentration in mol/L.

Past entries and their recorded results:
compound	pIC50
CSCC[C@H](NP(=O)(OC[C@H]1O[C@@H](n2cc(F)c(=O)[nH]c2=O)C[C@@H]1O)Oc1ccccc1)C(=O)OCc1ccccc1 (mixture of isomers)	4.60
C[C@H](NP(=O)(OC[C@H]1O[C@@H](n2cc(F)c(=O)[nH]c2=O)C[C@@H]1O)Oc1ccccc1)C(=O)OC1CCCCC1 (mixture of isomers)	5.92
CC(C)(NP(=O)(OC[C@H]1O[C@@H](n2cc(F)c(=O)[nH]c2=O)C[C@@H]1O)Oc1ccccc1)C(=O)OCc1ccccc1 (mixture of isomers)	5.32
O=C(OCc1ccccc1)[C@H](Cc1ccccc1)NP(=O)(OC[C@H]1O[C@@H](n2cc(F)c(=O)[nH]c2=O)C[C@@H]1O)Oc1ccccc1 (mixture of isomers)	4.96
CCCCCOC(=O)[C@H](Cc1ccccc1)NP(=O)(OC[C@H]1O[C@@H](n2cc(F)c(=O)[nH]c2=O)C[C@@H]1O)Oc1cccc2ccccc12 (mixture of isomers)	5.08

// below: pIC50 requested for another compound
The recorded pIC50 for C[C@H](NP(=O)(OC[C@H]1O[C@@H](n2cc(F)c(=O)[nH]c2=O)C[C@@H]1O)Oc1cccc2ccccc12)C(=O)OCC1CC1 (mixture of isomers) is 5.96

----------
# IC50 per record follows
tested on: L1210; test: Cytostatic activity against Mycoplasma hyorhinis-infected mouse L1210 cells after 48 hrs by cell counting; assay type: functional, cell-based; conditions: L1210, 48 h
API: value field is a number in nM; no unit string.

IC50 of CC[C@H](C)[C@H](NP(=O)(OC[C@H]1O[C@@H](n2cc(F)c(=O)[nH]c2=O)C[C@@H]1O)Oc1ccccc1)C(=O)OCc1ccccc1 (mixture of isomers) , assay on L1210, is 2200

----------
tested on: L1210; experiment: Ratio of IC50 for Mycoplasma hyorhinis-infected mouse L1210 cells to IC50 for mouse L1210/0 cells after 48 hrs by cell counting; format: functional
# Ratio IC50 per record follows
A bare number is all that is needed in reply.

Past entries and their recorded results:
molecule	testSystem	Ratio IC50
O=C(OCc1ccccc1)[C@@H]1CCCN1P(=O)(OC[C@H]1O[C@@H](n2cc(F)c(=O)[nH]c2=O)C[C@@H]1O)Oc1ccccc1 (mixture of isomers)	L1210	51
O=C(OCc1ccccc1)[C@@H]1CCCN1P(=O)(OC[C@H]1O[C@@H](n2cc(F)c(=O)[nH]c2=O)C[C@@H]1O)Oc1cccc2ccccc12 (mixture of isomers)	L1210	2.5

// below: Ratio IC50 requested for another molecule
The recorded Ratio IC50 for CCOC(=O)C(C)(C)NP(=O)(OC[C@H]1O[C@@H](n2cc(F)c(=O)[nH]c2=O)C[C@@H]1O)Oc1ccccc1 (mixture of isomers) is 8.7

----------
tested on: L1210; experiment: Cytostatic activity against Mycoplasma hyorhinis-infected mouse L1210 cells after 48 hrs by cell counting; assay type: functional, cell-based; details: L1210, 48 h
measuredEndpoint: pIC50
In textbook form, pIC50 equals minus log to base ten of the concentration in mol/L.

compound	pIC50
O=C(OCc1ccccc1)[C@@H]1CCCN1P(=O)(OC[C@H]1O[C@@H](n2cc(F)c(=O)[nH]c2=O)C[C@@H]1O)Oc1ccccc1 (mixture of isomers)	4.74

The recorded pIC50 for CCOC(=O)C(C)(C)NP(=O)(OC[C@H]1O[C@@H](n2cc(F)c(=O)[nH]c2=O)C[C@@H]1O)Oc1ccccc1 (mixture of isomers) is 6.59

The recorded pIC50 for O=C(OCc1ccccc1)[C@H](Cc1ccccc1)NP(=O)(OC[C@H]1O[C@@H](n2cc(F)c(=O)[nH]c2=O)C[C@@H]1O)Oc1cccc2ccccc12 (mixture of isomers) is 6.64

The recorded pIC50 for CCOC(=O)[C@@H](NP(=O)(OC[C@H]1O[C@@H](n2cc(F)c(=O)[nH]c2=O)C[C@@H]1O)Oc1ccccc1)C(C)C (mixture of isomers) is 5.36

The recorded pIC50 for CCOC(=O)C(C)(C)NP(=O)(OC[C@H]1O[C@@H](n2cc(F)c(=O)[nH]c2=O)C[C@@H]1O)Oc1cccc2ccccc12 (mixture of isomers) is 6.77

The recorded pIC50 for CCCCCOC(=O)[C@H](CCSC)NP(=O)(OC[C@H]1O[C@@H](n2cc(F)c(=O)[nH]c2=O)C[C@@H]1O)Oc1ccccc1 (mixture of isomers) is 6.39

The recorded pIC50 for C[C@H](NP(=O)(OC[C@H]1O[C@@H](n2cc(F)c(=O)[nH]c2=O)C[C@@H]1O)Oc1cccc2ccccc12)C(=O)OCc1ccccc1 (mixture of isomers) [FOSIFLOXURIDINE NAFALBENAMIDE] is 7.60

The recorded pIC50 for CCCCCOC(=O)[C@H](CC(C)C)NP(=O)(OC[C@H]1O[C@@H](n2cc(F)c(=O)[nH]c2=O)C[C@@H]1O)Oc1cccc2ccccc12 (mixture of isomers) is 7.46

The recorded pIC50 for CCCOC(=O)[C@H](C)NP(=O)(OC[C@H]1O[C@@H](n2cc(F)c(=O)[nH]c2=O)C[C@@H]1O)Oc1cccc2ccccc12 (mixture of isomers) is 7.44

The recorded pIC50 for CCCCCCOC(=O)[C@H](C)NP(=O)(OC[C@H]1O[C@@H](n2cc(F)c(=O)[nH]c2=O)C[C@@H]1O)Oc1cccc2ccccc12 (mixture of isomers) is 8.66

The recorded pIC50 for CCCCCOC(=O)[C@@H](NP(=O)(OC[C@H]1O[C@@H](n2cc(F)c(=O)[nH]c2=O)C[C@@H]1O)Oc1cccc2ccccc12)[C@@H](C)CC (mixture of isomers) is 6.15

The recorded pIC50 for C[C@H](NP(=O)(OC[C@H]1O[C@@H](n2cc(F)c(=O)[nH]c2=O)C[C@@H]1O)Oc1cccc2ccccc12)C(=O)OC1CCOCC1 (mixture of isomers) is 6.32

The recorded pIC50 for CC(C)[C@H](NP(=O)(OC[C@H]1O[C@@H](n2cc(F)c(=O)[nH]c2=O)C[C@@H]1O)Oc1cccc2ccccc12)C(=O)OC1CCCCC1 (mixture of isomers) is 5.89

The recorded pIC50 for C[C@H](NP(=O)(OC[C@H]1O[C@@H](n2cc(F)c(=O)[nH]c2=O)C[C@@H]1O)Oc1ccccc1)C(=O)OC1CCCCC1 (mixture of isomers) is 7.40

The recorded pIC50 for COC(=O)[C@H](C)NP(=O)(OC[C@H]1O[C@@H](n2cc(F)c(=O)[nH]c2=O)C[C@@H]1O)Oc1ccccc1 (mixture of isomers) is 6.06

The recorded pIC50 for C[C@H](NP(=O)(OC[C@H]1O[C@@H](n2cc(F)c(=O)[nH]c2=O)C[C@@H]1O)Oc1cccc2ccccc12)C(=O)OC1Cc2ccccc2C1 (mixture of isomers) is 7.38

The recorded pIC50 for CC(C)C[C@H](NP(=O)(OC[C@H]1O[C@@H](n2cc(F)c(=O)[nH]c2=O)C[C@@H]1O)Oc1ccccc1)C(=O)OCc1ccccc1 (mixture of isomers) is 6.77

The recorded pIC50 for CC(C)C[C@H](NP(=O)(OC[C@H]1O[C@@H](n2cc(F)c(=O)[nH]c2=O)C[C@@H]1O)Oc1cccc2ccccc12)C(=O)OCc1ccccc1 (mixture of isomers) is 7.32

----------
# pIC50 per record follows
system: CCRF-CEM; assay: Cytostatic activity against thymidine-kinase deficient human CEM cells after 72 hrs by cell counting; assay type: functional, cell-based
In textbook form, pIC50 equals minus log to base ten of the concentration in mol/L.

Past entries and their recorded results:
compound	measuredEndpoint	dataValue
CCCCCOC(=O)[C@@H](NP(=O)(OC[C@H]1O[C@@H](n2cc(F)c(=O)[nH]c2=O)C[C@@H]1O)Oc1cccc2ccccc12)[C@@H](C)CC (mixture of isomers)	pIC50	4.77
C[C@H](NP(=O)(OC[C@H]1O[C@@H](n2cc(F)c(=O)[nH]c2=O)C[C@@H]1O)Oc1cccc2ccccc12)C(=O)OCC(C)(C)C (mixture of isomers)	pIC50	5.17

pIC50 of O=C(OCc1ccccc1)[C@H](Cc1ccccc1)NP(=O)(OC[C@H]1O[C@@H](n2cc(F)c(=O)[nH]c2=O)C[C@@H]1O)Oc1cccc2ccccc12 (mixture of isomers) , assay on CCRF-CEM, is 5.14

----------
tested on: L1210; experiment: Cytostatic activity against Mycoplasma hyorhinis-infected mouse L1210 cells after 48 hrs by cell counting; type: functional, cell-based; conditions: L1210, 48 h
Threshold-based label: IC50 under 30 nM gives TRUE, IC50 not under 30 nM gives FALSE.

Check out these entries, answers already filled in.
compound	assignedClass
C[C@H](NP(=O)(OC[C@H]1O[C@@H](n2cc(F)c(=O)[nH]c2=O)C[C@@H]1O)Oc1cccc2ccccc12)C(=O)OCCC(C)(C)C (mixture of isomers)	FALSE
CSCC[C@H](NP(=O)(OC[C@H]1O[C@@H](n2cc(F)c(=O)[nH]c2=O)C[C@@H]1O)Oc1ccccc1)C(=O)OCc1ccccc1 (mixture of isomers)	FALSE
CCOC(=O)[C@H](C)NP(=O)(OC[C@H]1O[C@@H](n2cc(F)c(=O)[nH]c2=O)C[C@@H]1O)Oc1cccc2ccccc12 (mixture of isomers)	FALSE
CCCCCOC(=O)[C@H](C)NP(=O)(OC[C@H]1O[C@@H](n2cc(F)c(=O)[nH]c2=O)C[C@@H]1O)Oc1cccc2ccccc12 (mixture of isomers)	TRUE

// query Regarding C[C@H](NP(=O)(OC[C@H]1O[C@@H](n2cc(F)c(=O)[nH]c2=O)C[C@@H]1O)Oc1cccc2ccccc12)C(=O)OCC1CC1 (mixture of isomers) , kindly confirm whether its IC50 is beneath 30 nM.
// result FALSE

// query Regarding C[C@H](NP(=O)(OC[C@H]1O[C@@H](n2cc(F)c(=O)[nH]c2=O)C[C@@H]1O)Oc1cccc2ccccc12)C(=O)OCC(C)(C)C (mixture of isomers) , kindly confirm whether its IC50 is beneath 30 nM.
// result FALSE
